System: Caco-2, human colorectal carcinoma cells
Assay: Proliferation assay, Caco-2 (crystal violet)
Type: cell-based
Conditions: 96 h, Caco-2, 4 days, read-out: Inhibition of Caco-2 cell proliferation
measured-attribute: pIC50
Numbers only, as −log10 of the molar value.

CS(=O)(Cc1cc(F)nc(Nc2cc(-c3ccc(F)c4ccoc34)c(F)cn2)c1)=NC(=O)C(F)(F)F (racemic) [Example 2] : 7.46

Need pIC50 for each of these compounds.
1. CCc1cc(CS(C)(=N)=O)cc(Nc2cc(-c3ccc(F)c4ccoc34)c(F)cn2)n1 (racemic) [Example 8]
2. CS(=N)(=O)Cc1ccnc(Nc2cc(-c3ccc(F)c4ccoc34)c(F)cn2)c1 (racemic) [Example 5]
3. CS(=N)(=O)Cc1cc(F)nc(Nc2cc(-c3ccc(F)c4ccoc34)c(F)cn2)c1 (racemic) [Example 1]
4. CS(=O)(Cc1cc(Nc2cc(-c3ccc(F)c4ccoc34)c(F)cn2)nc(C(F)(F)F)c1)=NC(=O)C(F)(F)F (racemic) [Example 4]
5. Cc1cc(CS(C)(=N)=O)cc(Nc2cc(-c3ccc(F)c4ccoc34)c(F)cn2)n1 (racemic) [Example 7]
6. CS(=N)(=O)Cc1cc(Nc2cc(-c3ccc(F)c4ccoc34)c(F)cn2)nc(C(F)(F)F)c1 (racemic) [Example 3]
7. CS(=O)(Cc1ccnc(Nc2cc(-c3ccc(F)c4ccoc34)c(F)cn2)c1)=NC(=O)C(F)(F)F (racemic) [Example 6]

8.03
7.34
7.47
7.40
7.85
7.72
7.24
